Target: T1, AAV9 (adeno-associated virus 9)
T1 construct: also called adeno-associated virus serotype 9
Test: SPR, AAV amine-coupled to CM5 chip;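 further: nanobodies flowed as analyte at seven concentrations spanning 1–100 nM over immobilized AAV (500–800 RU), kinetic constants derived by fitting the binding curves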
Please provide measured Kd for the entries that follow.
Just the number plus its unit, please.

Task: GET /values?readout=Kd&item= A4-054 (VHH) VHH: VQLQESGGGLVQPGGSLRLSCAASGSAFSINTMGWYRQAPGKQRELVAAVTRGGSTNYADSVKGRFTISRDNAKNTVYLQMNSLRPEDTAVYYCHVDEVRQSSWTTSNLWGQGTQVTVSS
Output: 28.9 nM

Task: GET /values?readout=Kd&item= A4-060 (VHH) VHH: VQLQESGGGLVQPGGSLRLSCAASGSTFSLNTMGWYRQAPGKQREIVATVTRGGSTNYAESVKGRFTISRDNAKNTVYLQMNSLRPEDTAVYYCHVDEVRQSTWTTSNLWGQGTQVTVSS
Output: 69.2 nM

Task: GET /values?readout=Kd&item= A4-065 (VHH) VHH: VQLQESGGGLVQSGGSLRLSCAASGRNFSLNTVGWYRQAPGKQRELVATVTRGGSTNYAGSVKGRFTISRDNAKNTVYLQMNSLRPEDTAVYYCHVDEVRESSWTTSNLWGQGTQVTVSS
Output: 8.44 nM

Task: GET /values?readout=Kd&item= A4-063 (VHH) VHH: VQLQESGGGLVQPGGSLRLSCAASGRRFTINTMGWYRRAPGKQRELVATITRGGSTNYAGSVKGRFTISRDNPKNTVYLQMNSLRPEDTAVYYCHIDEVRQSSWTTSNLWGQGTQVTVSS
Output: 81.6 nM
